Can you tell me viability, T/C for the items I'm about to list?
- ASSAY_DETAILS: Anticancer human tumor 997537-175-T-J1-PDC patient-derived colon adenocarcinoma cell line growth inhibition [POLQ];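 further: luminescence signal used as a surrogate for viable cells; spheroids exposed to drugs for seven days before readout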
- MEASUREMENT_CONDITIONS: 997537-175-T-J1-PDC complex spheroid viability, combination with POLQ inhibitors; second compound 0.316 µM; first compound 10 µM; hits give low values
Output spec: scalar in %, unitless text.

Could you tell me which viability, T/C is on file for COc1cc(C2c3cc4c(cc3C(OC3OC5COC(C)OC5C(O)C3O)C3COC(=O)C23)OCO4)cc(OC)c1O (stereo not drawn) + Nc1ccc(C#CCN(C(=O)Cc2ncc(C(F)(F)F)cc2C(F)(F)F)c2ccc(F)cc2)nn1 ?
69.7

Could you tell me which viability, T/C is on file for CCc1cc2c(N3CCc4c(cc(Cn5ccnc5)cc4-c4cn(C)nc4C(F)(F)F)C3=O)cc(C)nc2c(OC)n1 + COC1C(OC(N)=O)C(O)C(Oc2ccc3c(O)c(NC(=O)c4ccc(O)c(CC=C(C)C)c4)c(=O)oc3c2C)OC1(C)C ?
66.7

Could you tell me which viability, T/C is on file for CC(C)n1c(=O)n(C)c2cnc3cc(F)c(-c4ccc(OCCCN5CCCCC5)nc4)cc3c21 + COC1C(OC(N)=O)C(O)C(Oc2ccc3c(O)c(NC(=O)c4ccc(O)c(CC=C(C)C)c4)c(=O)oc3c2C)OC1(C)C ?
77.7

Just for reference, PubChem BioAssay AID1963825 is where these values come from.
